- Tested on: human bronchial epithelial cells, CFTR corrector, plate reader
- Assay Details: rescue of ΔF508 CFTR function, airway epithelium – human bronchial epithelial cells, plate reader, cherry-pick, two tests, dose response (AID 743267)
- Measurement Setup: measured here: test 2 replicate run

>  <Compound>
CC[n+]1c(-c2ccccc2)c2cc(N)ccc2c2ccc(N)cc21

>  <Value Relation Sign>
=

>  <AC50 / µM>
7.74

$$$$
>  <Compound>
COc1ccc(C)cc1NC(=O)CNC(c1ccccc1)c1ccc(C)cc1 (centres undefined)

>  <Value Relation Sign>
=

>  <AC50 / µM>
2.03

$$$$
>  <Compound>
C=CCCC(=O)Nc1nc(C)c(-c2csc(Nc3cc(OC)ccc3OC)n2)s1

>  <Value Relation Sign>
=

>  <AC50 / µM>
10.3

$$$$
>  <Compound>
COc1nc(N)nc(NC(=O)c2cccs2)c1N=O

>  <Value Relation Sign>
=

>  <AC50 / µM>
16

$$$$
>  <Compound>
O=c1ccc2[n+]([O-])c3ccc(O)cc3oc-2c1

>  <Value Relation Sign>
=

>  <AC50 / µM>
26.3

$$$$
>  <Compound>
O=C(CCC(=O)N1CCOc2ccc(Cl)cc21)N1CCN(c2ccccn2)CC1

>  <Value Relation Sign>
>

>  <AC50 / µM>
50

$$$$
>  <Compound>
COc1ccccc1N1CC(C(=O)Nc2ccc(S(=O)(=O)N3CCCC3)cc2)CC1=O (centres undefined)

>  <Value Relation Sign>
=

>  <AC50 / µM>
10.6

$$$$
>  <Compound>
CCN1/C(=C/c2ccc3cc(C)cc(C)c3[n+]2CC)Sc2cc(C)ccc21

>  <Value Relation Sign>
=

>  <AC50 / µM>
12.4

$$$$
>  <Compound>
C=CC(C)(C)c1[nH]cnc1/C=C1\NC(=O)C(C(C)C)NC1=O (centres undefined)

>  <Value Relation Sign>
=

>  <AC50 / µM>
40.2

$$$$
>  <Compound>
CC(=O)Nc1cccc(-c2ccnc3c2CC(C)(C(=O)NCc2cccs2)O3)c1 (centres undefined)

>  <Value Relation Sign>
=

>  <AC50 / µM>
3.3

$$$$
>  <Compound>
CC1(S(=O)(=O)O)CC(=O)c2ccccc2C1=O (centres undefined)

>  <Value Relation Sign>
=

>  <AC50 / µM>
28.6

$$$$
>  <Compound>
CCOC(=O)c1[nH]c(C)c(/C(O)=C2\C(=O)C(=O)N(CCCN3CCOCC3)C2c2cccs2)c1C (centres undefined)

>  <Value Relation Sign>
=

>  <AC50 / µM>
19.4

$$$$
>  <Compound>
Cc1cc(N/N=C/c2ccccc2O)c2ccccc2n1

>  <Value Relation Sign>
=

>  <AC50 / µM>
21.1

$$$$
>  <Compound>
Cc1ccc2nc(-c3ccc4c(c3)OCCO4)cn2c1

>  <Value Relation Sign>
=

>  <AC50 / µM>
2.33

$$$$
>  <Compound>
O=c1c2ccccc2oc2cc(-c3ccc4[nH]ccc4c3)ccc12

>  <Value Relation Sign>
=

>  <AC50 / µM>
1.94

$$$$
>  <Compound>
O=C(O)CCCCCCCCc1cn(Cc2ccc(C(=O)c3ccccc3)cc2)nn1

>  <Value Relation Sign>
=

>  <AC50 / µM>
2.17

$$$$
>  <Compound>
O=P(Oc1ccc(-c2ccccc2)cc1)(N1CC1)N1CC1

>  <Value Relation Sign>
>

>  <AC50 / µM>
50

$$$$
>  <Compound>
CCOC(=O)/C(=C/C=C1\Sc2cc(C)c(C)cc2N1CC)C(C)=O

>  <Value Relation Sign>
=

>  <AC50 / µM>
13.6

$$$$
>  <Compound>
COc1ccc([C@H]2CC(=O)C=C(c3ccc(OC)cc3OC)C2)cc1

>  <Value Relation Sign>
=

>  <AC50 / µM>
0.681

$$$$
>  <Compound>
CN(Cc1ccccc1)S(=O)(=O)c1ccc(NC(=S)NC(=O)C2CCCC2)cc1

>  <Value Relation Sign>
=

>  <AC50 / µM>
5.32

$$$$
>  <Compound>
Cc1cccc2c(N=Nc3ccc(S(=O)(=O)Nc4ccc(Cl)cc4)cc3[N+](=O)[O-])c(O)[nH]c12

>  <Value Relation Sign>
>

>  <AC50 / µM>
50

$$$$
>  <Compound>
Oc1ccc2ccccc2c1/C=C/c1ccc2c(Br)cc(Br)c(O)c2n1

>  <Value Relation Sign>
=

>  <AC50 / µM>
21.5

$$$$
>  <Compound>
CCC1=Nc2cc(C(=O)NCC3CCCO3)ccc2Sc2ccc(Cl)cc21 (centres undefined)

>  <Value Relation Sign>
=

>  <AC50 / µM>
7.26

$$$$
>  <Compound>
COc1ccc(S(=O)(=O)NCc2ccccn2)cc1NC(=O)c1ccccc1F

>  <Value Relation Sign>
=

>  <AC50 / µM>
1.32

$$$$
>  <Compound>
COc1ccc(-c2ccc3oc(-c4ccc(OC)cc4)c(C#CCO)c3c2)cc1

>  <Value Relation Sign>
>

>  <AC50 / µM>
50

$$$$
>  <Compound>
CN(C)CCCNc1c2ccccc2nc2ccccc12

>  <Value Relation Sign>
=

>  <AC50 / µM>
0.879

$$$$
>  <Compound>
COC(=O)c1cc2c(=O)c3ccccc3oc2nc1/C=C/N(C)C

>  <Value Relation Sign>
=

>  <AC50 / µM>
0.984

$$$$
>  <Compound>
COc1cc(-c2nccc3cc4c(cc23)OCO4)cc(OC)c1OC

>  <Value Relation Sign>
=

>  <AC50 / µM>
6.02

$$$$
>  <Compound>
c1ccc2c(NCCCN3CCOCC3)c3ccccc3nc2c1

>  <Value Relation Sign>
=

>  <AC50 / µM>
3.51

$$$$
>  <Compound>
Cc1ccc2c(CN3CCN(S(=O)(=O)c4ccc(Cl)cc4)CC3)cc(=O)oc2c1C

>  <Value Relation Sign>
=

>  <AC50 / µM>
11.6

$$$$
>  <Compound>
Cc1nc(/N=C(\N)NC(=O)NC2CCCCC2)nc2ccccc12

>  <Value Relation Sign>
=

>  <AC50 / µM>
2.76

$$$$
>  <Compound>
C=C1SC(Nc2c(C)cc(C)cc2C)=NC12CCCCC2

>  <Value Relation Sign>
=

>  <AC50 / µM>
5.37

$$$$
>  <Compound>
Clc1cccc(-c2ccc(C=Nc3ccc(N4CCOCC4)cc3)o2)c1Cl

>  <Value Relation Sign>
>

>  <AC50 / µM>
50

$$$$
>  <Compound>
COc1cc(OC)c2c(-c3cccc(-c4cccc(N)c4)c3)cc(=O)oc2c1

>  <Value Relation Sign>
=

>  <AC50 / µM>
3.43

$$$$
>  <Compound>
Cc1cccc(C(=O)N(Cc2ccco2)c2c(N)n(Cc3ccccc3)c(=O)[nH]c2=O)c1

>  <Value Relation Sign>
>

>  <AC50 / µM>
50

$$$$
>  <Compound>
N#CC1=C(N)Oc2cc(N)ccc2C1c1cccc(F)c1 (centres undefined)

>  <Value Relation Sign>
=

>  <AC50 / µM>
3.15

$$$$
>  <Compound>
COc1nc(-c2ccccc2)cc(-c2ccc3c(c2)OCO3)c1C#N

>  <Value Relation Sign>
=

>  <AC50 / µM>
3.66

$$$$
>  <Compound>
CC1=C/C(=C\C=C(C#N)C#N)N(C)c2ccccc21

>  <Value Relation Sign>
=

>  <AC50 / µM>
12.9

$$$$
>  <Compound>
NS(=O)(=O)c1ccc(CCNc2nn3c(-c4cccc(OC(F)(F)F)c4)cnc3s2)cc1

>  <Value Relation Sign>
=

>  <AC50 / µM>
1.99

$$$$
>  <Compound>
COC(=O)c1cn(NC(=O)c2cc([N+](=O)[O-])ccc2F)c(=O)c2ccccc12

>  <Value Relation Sign>
=

>  <AC50 / µM>
1.21

$$$$
>  <Compound>
COc1cccc(N=Nc2ccc3cccnc3c2O)c1

>  <Value Relation Sign>
>

>  <AC50 / µM>
50

$$$$
>  <Compound>
COc1cc2c(cc1OC)C(c1cccs1)N(C(=O)c1cccnc1)CC2 (centres undefined)

>  <Value Relation Sign>
=

>  <AC50 / µM>
4.9

$$$$
>  <Compound>
Cn1c(CC(=O)NN)c(Sc2ccccc2)c2ccccc21

>  <Value Relation Sign>
>

>  <AC50 / µM>
50

$$$$
>  <Compound>
COc1ccc(NS(=O)(=O)c2cc(NC(=O)Cc3c(F)cccc3Cl)ccc2OC)cc1

>  <Value Relation Sign>
=

>  <AC50 / µM>
0.827

$$$$

---

Attribute: AC50
- Tested on: human bronchial epithelial cells, CFTR corrector, plate reader
- Assay Details: rescue of ΔF508 CFTR function, airway epithelium – human bronchial epithelial cells, plate reader, cherry-pick, two tests, dose response (AID 743267)
- Measurement Setup: measured here: test 2 replicate run
Measure: AC50

>  <Structure Smiles>
CCOC(=O)c1c(C)[nH]c(C(=O)N/N=C/c2ccc(OC)c(OC)c2)c1C

>  <Result>
2930 nM

$$$$
>  <Structure Smiles>
COc1cc(OC)cc(C(=O)c2c(C)c(C#N)c3ccccn23)c1

>  <Result>
1800 nM

$$$$
>  <Structure Smiles>
O=C(NCCCN1CCOCC1)c1cc(S(=O)(=O)N2CCOCC2)c(Cl)cc1Cl

>  <Result>
> 50000 nM

$$$$
>  <Structure Smiles>
Cn1nccc1C(=O)N/N=C/c1c(O)ccc2ccccc12

>  <Result>
19200 nM

$$$$
>  <Structure Smiles>
CCCC(=O)Nc1nc2ccc(NC(=O)c3c(F)c(F)c(OC)c(F)c3F)cc2s1

>  <Result>
1130 nM

$$$$
